As shown below, each of these compounds has a reported Kp at 1 h value.
Assay: Ratio of drug level in brain to plasma in Sprague-Dawley rat at 10 mg/kg, po at 1 hr
Format: ADME, organism-based
Details: read-out: BPR
readout-kind: Kp at 1 h

item_smiles=Cc1ccc(-n2nccn2)c(C(=O)N2C[C@@H]3CN(c4nc5cc(F)ccc5o4)C[C@@H]3C2)c1 readout_kind="Kp at 1 h" value_observed=0.05
item_smiles=Cc1ccc(-n2nccn2)c(C(=O)N2C[C@@H]3CN(c4nc5cc(Cl)ccc5o4)C[C@@H]3C2)c1 readout_kind="Kp at 1 h" value_observed=0.15
item_smiles=Cc1ccc(-n2nccn2)c(C(=O)N2C[C@@H]3CN(c4ncc5cc(F)ccc5n4)C[C@@H]3C2)c1 readout_kind="Kp at 1 h" value_observed=0.13
item_smiles=Cc1ccc(-n2nccn2)c(C(=O)N2C[C@@H]3CN(c4nc5ccccc5o4)C[C@@H]3C2)c1 readout_kind="Kp at 1 h" value_observed=0.12

====

As shown below, each of these compounds has a reported IC50 value.
Biological target: Orexin/Hypocretin receptor type 1 (Homo sapiens, UniProt O43613)
Sequence (O43613 whole entry): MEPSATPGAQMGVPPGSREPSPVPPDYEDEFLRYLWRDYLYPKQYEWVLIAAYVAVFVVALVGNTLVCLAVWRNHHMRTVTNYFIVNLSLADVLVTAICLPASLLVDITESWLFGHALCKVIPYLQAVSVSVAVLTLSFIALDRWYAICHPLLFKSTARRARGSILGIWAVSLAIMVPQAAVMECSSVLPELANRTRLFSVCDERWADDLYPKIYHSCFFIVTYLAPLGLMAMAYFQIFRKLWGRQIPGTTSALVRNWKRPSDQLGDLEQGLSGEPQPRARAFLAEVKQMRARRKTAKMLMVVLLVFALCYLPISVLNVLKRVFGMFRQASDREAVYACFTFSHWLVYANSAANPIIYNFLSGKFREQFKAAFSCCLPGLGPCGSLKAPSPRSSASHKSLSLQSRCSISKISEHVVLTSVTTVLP
Test: Antagonist activity at human orexin 1 receptor expressed in HEK293 cells assessed as inhibition of orexin-induced calcium mobilization after 60 mins by FLIPR assay
readout-kind: IC50 (µM)

compound="Cc1ccc(-n2nccn2)c(C(=O)N2CCC3CN(c4nc5cc(Cl)ccc5o4)CC32)c1 (configuration not stated)" readout_kind=IC50 reading_qualifier== value_observed=2.97
compound=O=C(c1ccccc1-n1nccn1)N1C[C@@H]2CN(c3nc4cc(Cl)ccc4o3)C[C@@H]2C1 readout_kind=IC50 reading_qualifier== value_observed=0.489
compound=Cc1ccc(-n2nccn2)c(C(=O)N2C[C@@H]3CN(c4nc5cc(OC(F)(F)F)ccc5o4)C[C@@H]3C2)c1 readout_kind=IC50 reading_qualifier== value_observed=3.92
compound="Cc1ccc(-n2nccn2)c(C(=O)N2CC3CCN(c4nc5cc(Cl)ccc5o4)C3C2)c1 (configuration not stated)" readout_kind=IC50 reading_qualifier=> value_observed=10
compound=Cc1ccc(-n2nccn2)c(C(=O)N2C[C@@H]3CN(c4nc5cc(Cl)ccc5s4)C[C@@H]3C2)c1 readout_kind=IC50 reading_qualifier== value_observed=0.327
compound=Cc1ccc(-n2nccn2)c(C(=O)N2C[C@H]3CN(Cc4nc5cc(Cl)ccc5o4)C[C@H]3C2)c1 readout_kind=IC50 reading_qualifier== value_observed=3.24
compound=Cc1ccc(-n2nccn2)c(C(=O)N2C[C@@H]3CN(c4nc5cc(C)ccc5o4)C[C@@H]3C2)c1 readout_kind=IC50 reading_qualifier== value_observed=0.113
compound=O=C(c1cc(F)ccc1-n1nccn1)N1C[C@@H]2CN(c3nc4cc(Cl)ccc4o3)C[C@@H]2C1 readout_kind=IC50 reading_qualifier== value_observed=1.96
compound="Cc1ccc(-n2nccn2)c(C(=O)N2CC3CCCN(c4nc5cc(Cl)ccc5o4)C3C2)c1 (configuration not stated)" readout_kind=IC50 reading_qualifier=> value_observed=10
compound=Cc1ccc(-n2nccn2)c(C(=O)N2C[C@@H]3CN(c4nc5cc(C(F)(F)F)ccc5o4)C[C@@H]3C2)c1 readout_kind=IC50 reading_qualifier== value_observed=1.78
compound=O=C(c1cc(C(F)(F)F)ccc1-n1nccn1)N1C[C@@H]2CN(c3nc4cc(Cl)ccc4o3)C[C@@H]2C1 readout_kind=IC50 reading_qualifier== value_observed=5.02
compound=Cc1ccc(-n2nccn2)c(C(=O)N2C[C@@H]3CN(c4ncnc5ccccc45)C[C@@H]3C2)c1 readout_kind=IC50 reading_qualifier=> value_observed=10

Ref: ChEMBL document CHEMBL3997829
